study-system: human recombinant BRAF (Homo sapiens, UniProt P15056)
Construct: purchased BPS Bioscience 40065
Sequence (P15056 whole entry): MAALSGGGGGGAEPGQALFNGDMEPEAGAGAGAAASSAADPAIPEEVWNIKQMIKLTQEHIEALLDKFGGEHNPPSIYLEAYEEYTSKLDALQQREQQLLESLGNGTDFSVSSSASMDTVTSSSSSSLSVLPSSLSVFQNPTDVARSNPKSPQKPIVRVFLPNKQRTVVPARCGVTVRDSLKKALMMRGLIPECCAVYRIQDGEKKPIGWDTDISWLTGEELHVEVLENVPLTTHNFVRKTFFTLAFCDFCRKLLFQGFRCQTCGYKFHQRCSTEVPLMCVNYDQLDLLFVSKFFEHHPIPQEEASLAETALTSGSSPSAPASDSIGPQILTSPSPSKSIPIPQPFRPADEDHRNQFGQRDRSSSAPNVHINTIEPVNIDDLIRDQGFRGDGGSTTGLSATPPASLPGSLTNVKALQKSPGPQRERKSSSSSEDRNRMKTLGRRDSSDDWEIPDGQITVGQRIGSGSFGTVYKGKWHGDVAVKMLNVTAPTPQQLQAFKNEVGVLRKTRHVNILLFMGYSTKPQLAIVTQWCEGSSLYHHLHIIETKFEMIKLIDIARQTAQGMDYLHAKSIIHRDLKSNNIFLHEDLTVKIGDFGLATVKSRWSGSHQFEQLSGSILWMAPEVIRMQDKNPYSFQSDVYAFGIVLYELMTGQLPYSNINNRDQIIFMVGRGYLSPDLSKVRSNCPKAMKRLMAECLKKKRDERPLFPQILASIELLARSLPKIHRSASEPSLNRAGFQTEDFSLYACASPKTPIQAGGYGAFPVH
assay-notes: BRAF^WT Inhibition Assay (TR-FRET)
Format: biochemical
pIC50: −log10 of the molar value.
Each entry below lists one item and its recorded pIC50 value.
outcome-measure: pIC50

| compound | quantitative-result |
| --- | --- |
| Cc1ccc(NC(=O)c2cnc3c(c2)C(F)(F)CC3)cc1-c1cc(OCCO)nc(N2CCOCC2)c1 | 7.34 |
| Cc1ccc(NC(=O)c2ccc3c(c2)OC(F)(F)O3)cc1-c1cc(OCCO)nc(N2CCOCC2)c1 | 7.06 |
| Cc1ccc(NC(=O)c2cnc3c(c2)CCC3(F)F)cc1-c1cc(OCCO)nc(N2CCOCC2)c1 | 7.59 |
| Cc1ccc(NC(=O)c2ccc3c(c2)CC3)cc1-c1cc(OCCO)nc(N2CCOCC2)c1 | 7.41 |
| Cc1ccc(NC(=O)c2ccc3c(c2)OC(C)(C)O3)cc1-c1cc(OCCO)nc(N2CCOCC2)c1 | 6.85 |
| Cc1ccc(NC(=O)c2ccc3c(c2)OCO3)cc1-c1cc(OCCO)nc(N2CCOCC2)c1 | 7.38 |
| Cc1ccc(NC(=O)c2ccc3c(c2)C(F)(F)CC3)cc1-c1cc(OCCO)nc(N2CCOCC2)c1 | 6.77 |
| Cc1ncc(NC(=O)c2ccc3c(c2)OC(F)(F)O3)cc1-c1cc(OCCO)nc(N2CCOCC2)c1 | 7.15 |
| Cc1ccc(NC(=O)c2ccc3c(c2)C(F)(F)CO3)cc1-c1cc(OCCO)nc(N2CCOCC2)c1 | 6.59 |
| Cc1ccc(NC(=O)c2ccc3c(c2)CCC3(F)F)cc1-c1cc(OCCO)nc(N2CCOCC2)c1 | 7.04 |
| Cc1ccc(NC(=O)c2ccc3c(c2)OCCO3)cc1-c1cc(OCCO)nc(N2CCOCC2)c1 | 7.51 |
| Cc1ccc(NC(=O)c2ccnc(C(F)(F)F)c2)cc1-c1cc(OCCO)nc(N2CCOCC2)c1 [LXH254, reference compound] | 7.42 |
| Cc1ccc(NC(=O)c2cc3c(cn2)OC(F)(F)O3)cc1-c1cc(OCCO)nc(N2CCOCC2)c1 | 7.02 |

----------
study-system: human recombinant cRAF (Homo sapiens)
Sequence (P04049 whole entry Y340D/Y341D, form open): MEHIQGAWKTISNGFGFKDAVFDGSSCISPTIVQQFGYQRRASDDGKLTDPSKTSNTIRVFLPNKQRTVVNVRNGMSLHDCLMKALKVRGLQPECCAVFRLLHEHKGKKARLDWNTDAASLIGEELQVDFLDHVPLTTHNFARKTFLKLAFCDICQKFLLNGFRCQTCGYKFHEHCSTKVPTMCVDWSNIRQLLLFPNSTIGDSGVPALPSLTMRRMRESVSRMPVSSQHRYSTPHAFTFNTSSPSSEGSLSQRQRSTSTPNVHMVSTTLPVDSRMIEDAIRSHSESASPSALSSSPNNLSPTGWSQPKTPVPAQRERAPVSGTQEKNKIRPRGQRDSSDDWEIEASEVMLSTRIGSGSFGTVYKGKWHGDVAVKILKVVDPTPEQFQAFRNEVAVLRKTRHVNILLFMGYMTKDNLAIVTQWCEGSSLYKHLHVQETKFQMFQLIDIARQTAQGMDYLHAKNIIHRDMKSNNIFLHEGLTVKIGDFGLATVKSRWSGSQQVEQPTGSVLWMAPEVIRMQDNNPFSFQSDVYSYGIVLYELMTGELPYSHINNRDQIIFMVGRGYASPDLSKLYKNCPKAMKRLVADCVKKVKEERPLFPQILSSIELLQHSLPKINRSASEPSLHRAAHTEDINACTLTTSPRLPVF
assay-notes: cRAF Inhibition Assay (TR-FRET)
pIC50: −log10 of the molar value.
The reader will find reported pIC50 values listed item by item below.

| molecule | pIC50 |
| --- | --- |
| Cc1ccc(NC(=O)c2cnc3c(c2)CCC3(F)F)cc1-c1cc(OCCO)nc(N2CCOCC2)c1 | 8.41 |
| Cc1ccc(NC(=O)c2cnc3c(c2)C(F)(F)CC3)cc1-c1cc(OCCO)nc(N2CCOCC2)c1 | 8.00 |
| Cc1ncc(NC(=O)c2ccc3c(c2)OC(F)(F)O3)cc1-c1cc(OCCO)nc(N2CCOCC2)c1 | 8.00 |
| Cc1ccc(NC(=O)c2ccc3c(c2)CCC3(F)F)cc1-c1cc(OCCO)nc(N2CCOCC2)c1 | 7.41 |
| Cc1ccc(NC(=O)c2ccc3c(c2)CC3)cc1-c1cc(OCCO)nc(N2CCOCC2)c1 | 8.10 |
| Cc1ccc(NC(=O)c2ccc3c(c2)OC(C)(C)O3)cc1-c1cc(OCCO)nc(N2CCOCC2)c1 | 7.60 |
| Cc1ccc(NC(=O)c2ccc3c(c2)OCO3)cc1-c1cc(OCCO)nc(N2CCOCC2)c1 | 8.17 |
| Cc1ccc(NC(=O)c2ccc3c(c2)C(F)(F)CO3)cc1-c1cc(OCCO)nc(N2CCOCC2)c1 | 7.29 |
| Cc1ccc(NC(=O)c2ccc3c(c2)OC(F)(F)O3)cc1-c1cc(OCCO)nc(N2CCOCC2)c1 | 7.82 |
| Cc1ccc(NC(=O)c2ccc3c(c2)C(F)(F)CC3)cc1-c1cc(OCCO)nc(N2CCOCC2)c1 | 7.57 |
| Cc1ccc(NC(=O)c2ccnc(C(F)(F)F)c2)cc1-c1cc(OCCO)nc(N2CCOCC2)c1 [LXH254, reference compound] | 7.89 |
| Cc1ccc(NC(=O)c2ccc3c(c2)OCCO3)cc1-c1cc(OCCO)nc(N2CCOCC2)c1 | 8.33 |
| Cc1ccc(NC(=O)c2cc3c(cn2)OC(F)(F)O3)cc1-c1cc(OCCO)nc(N2CCOCC2)c1 | 7.60 |
